FYI, the data here is from ChEMBL document CHEMBL1201862.

Target: UniProt:Q9QUQ5
Sequence (Q9QUQ5 whole entry): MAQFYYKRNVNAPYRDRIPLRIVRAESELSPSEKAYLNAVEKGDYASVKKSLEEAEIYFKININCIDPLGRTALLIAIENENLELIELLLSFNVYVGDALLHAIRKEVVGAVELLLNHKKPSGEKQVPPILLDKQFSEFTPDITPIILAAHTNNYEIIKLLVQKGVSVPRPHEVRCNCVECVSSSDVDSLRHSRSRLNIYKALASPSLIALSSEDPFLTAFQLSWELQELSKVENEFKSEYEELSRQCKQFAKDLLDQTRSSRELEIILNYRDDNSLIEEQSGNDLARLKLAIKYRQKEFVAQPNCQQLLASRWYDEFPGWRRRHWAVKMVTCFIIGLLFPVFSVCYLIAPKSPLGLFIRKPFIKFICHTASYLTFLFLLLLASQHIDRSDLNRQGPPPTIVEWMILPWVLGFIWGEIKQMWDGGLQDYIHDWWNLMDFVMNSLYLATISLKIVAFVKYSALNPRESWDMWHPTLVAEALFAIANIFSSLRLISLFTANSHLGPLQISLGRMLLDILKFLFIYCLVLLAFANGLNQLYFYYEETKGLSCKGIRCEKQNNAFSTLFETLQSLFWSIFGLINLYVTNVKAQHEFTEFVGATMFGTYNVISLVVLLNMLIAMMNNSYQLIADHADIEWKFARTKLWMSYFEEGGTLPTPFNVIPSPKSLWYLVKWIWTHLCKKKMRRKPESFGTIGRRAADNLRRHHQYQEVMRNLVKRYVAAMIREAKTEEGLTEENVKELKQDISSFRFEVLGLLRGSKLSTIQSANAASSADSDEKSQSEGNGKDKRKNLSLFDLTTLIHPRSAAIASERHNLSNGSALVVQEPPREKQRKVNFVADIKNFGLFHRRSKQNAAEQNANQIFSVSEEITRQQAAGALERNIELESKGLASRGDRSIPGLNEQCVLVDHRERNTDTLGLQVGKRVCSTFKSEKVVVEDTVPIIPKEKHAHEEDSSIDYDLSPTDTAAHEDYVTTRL
Assay: block of DAMGO-driven TRPC4 calcium entry – cell-based, HEK293 TRPC4/mu-opioid, Fluo-4 calcium, dose response (AID 434942);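 also: potency of inhibitors blocking the TRPC4 calcium response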
Format: functional
Calls of active or inactive are those of the source.
measurement label: EC50

COCCn1c(SCc2ccc(F)cc2)nc2ccccc2c1=O :: 2370 nM (active)

Identify measured EC50 associated with `COC(=O)c1cccc2c1-c1ccccc1/C2=N/O`
2990 nM (active)

Consider the compound `COc1ccc(-n2c3c(cc(C(=O)NCc4ccco4)c2=O)C(=O)CC(C)(C)C3)cc1` and give its recorded EC50.
3760 nM (active)

Output measured EC50 for this item: Cc1ccc(C)c2[nH]c(=O)c(CN(Cc3nnnn3C3CCCCC3)CC3CCCO3)cc12 (centres undefined)
1680 nM (active)

---

Readings of AC50 for the listed compounds
Molecular target: Microphthalmia-associated transcription factor (Homo sapiens)
Sequence (O75030 whole entry): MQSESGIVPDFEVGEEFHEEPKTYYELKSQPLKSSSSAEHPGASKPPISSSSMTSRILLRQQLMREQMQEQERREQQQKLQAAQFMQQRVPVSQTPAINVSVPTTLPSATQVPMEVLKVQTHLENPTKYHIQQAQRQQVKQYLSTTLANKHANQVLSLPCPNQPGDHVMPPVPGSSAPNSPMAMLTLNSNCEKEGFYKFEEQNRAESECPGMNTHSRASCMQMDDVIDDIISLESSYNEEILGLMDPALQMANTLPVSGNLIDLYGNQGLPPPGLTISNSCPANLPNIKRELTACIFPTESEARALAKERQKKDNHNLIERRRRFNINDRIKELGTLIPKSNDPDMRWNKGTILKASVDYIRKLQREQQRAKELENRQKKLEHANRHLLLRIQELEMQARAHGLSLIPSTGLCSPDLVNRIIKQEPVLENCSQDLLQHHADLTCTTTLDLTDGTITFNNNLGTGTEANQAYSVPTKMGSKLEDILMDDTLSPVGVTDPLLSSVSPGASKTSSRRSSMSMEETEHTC
Assay: reducers of TRPM1 reporter luminescence, concentration series – cell-based, SK-MEL-5, cherry-picked, set 3, MITF inhibitor project, dose response (AID 493073);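 also: SK-MEL-5 melanoma cells with luciferase driven by the MITF target TRPM1 promoter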
Type: functional
The source made the active and inactive calls.

Known results for compounds:
COc1cccc2sc(N(CCCN(C)C)C(=O)C(c3ccccc3)c3ccccc3)nc12 :: 15.1 µM (active)
COc1cccc2c1C(=O)C=C(C)C2=O :: 7.83 µM (active)
C=C1C(=O)O[C@@]23[C@H]1CC[C@@H](C)[C@@H]2CC[C@@]1(C)O[C@@H]31 [ARTEANNUIN B] :: 5.22 µM (active)

# ---- query compound ----
Report AC50 for COc1cc(C2C(C#N)=C(N)Oc3cc(N(C)C)ccc32)cc2c1OCO2 (stereo not given)
0.601 µM (active)

---

Target: Cytochrome P450 2C19 (Homo sapiens)
Sequence (P33261 whole entry): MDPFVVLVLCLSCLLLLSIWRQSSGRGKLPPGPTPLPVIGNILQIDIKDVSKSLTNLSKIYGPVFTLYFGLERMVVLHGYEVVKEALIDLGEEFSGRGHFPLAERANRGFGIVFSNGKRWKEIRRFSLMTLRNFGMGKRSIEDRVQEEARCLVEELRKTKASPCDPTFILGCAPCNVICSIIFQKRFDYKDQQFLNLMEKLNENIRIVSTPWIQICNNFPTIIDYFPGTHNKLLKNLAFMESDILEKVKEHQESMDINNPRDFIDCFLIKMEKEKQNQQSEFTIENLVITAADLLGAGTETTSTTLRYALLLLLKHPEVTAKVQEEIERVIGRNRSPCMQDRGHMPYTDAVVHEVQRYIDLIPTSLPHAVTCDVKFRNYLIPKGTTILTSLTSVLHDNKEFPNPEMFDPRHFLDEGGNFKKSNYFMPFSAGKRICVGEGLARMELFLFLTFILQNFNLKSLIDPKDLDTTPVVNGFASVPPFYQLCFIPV
Assay: Cytochrome panel assay with activity outcomes. Panel member name: p450-cyp2c19 Compounds with AC50 equal or less than 10 uM are considered active
Type: functional
Details: read-out: AC50
measurement label: AC50

CCc1ncc(CO)n1Cc1cccc2ccccc12 :: 0.398 µM (inconclusive)
C[C@H](N[C@@H](C)CCc1ccccc1)[C@H](O)c1ccc(O)cc1 :: 10 µM (inconclusive)

Okay, next one:
Retrieve AC50 measured for `CNc1ccnc(-c2ccccc2C(F)(F)F)n1` and print it.
25.1 µM (inconclusive)
